B1: EDARADD (parent)
chain: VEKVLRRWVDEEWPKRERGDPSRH

# Variants of: B1
# test method notes: protein stability index of a GFP-peptide fusion (GPS, HEK-293T) (PSI 1-6); higher = more stable;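 further: lentivirally expressed fusions sorted by FACS into six bins by GFP to DsRed ratio, PSI derived from sequencing read proportions per bin multiplied by bin number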
# applied conditions: c terminus: a fixed tail appended
Respond with true for protein stability index values of 3 and above, false for values below.

// known answers, use as guide
VEKVLRRWVDEEWPKREPGDPSRH [R18P] | true
VEKVLRRSVDEEWPKRERGDPSRH [W8S] | true
VEKVLRRWVDEEWPKQERGDPSRH [R16Q] | false
VEKVLRRTVDEEWPKRERGDPSRH [W8T] | true
VEKVLRRWVDEEWPKRERGDLSRH [P21L] | false
VEKVLRRWVSEEWPKRERGDPSRH [D10S] | true
VEKVLRRWVDEEWPKRIRGDPSRH [E17I] | false
VEKVLRRWVDHEWPKRERGDPSRH [E11H] | false
YEKVLRRWVDEEWPKRERGDPSRH [V1Y] | false
VEKVLRRWVDEEWPKRERGDPSRQ [H24Q] | true

Q. Does protein stability index meet or surpass 3 for VEKVLRRWVDEEWPKRERGWPSRH [D20W] ?
A. false

Q. Is it the case that VEKVLRRWVDEEWMKRERGDPSRH [P14M] has protein stability index reaching or exceeding 3?
A. false

Q. Does the variant VEFVLRRWVDEEWPKRERGDPSRH [K3F] have recorded protein stability index that is 3 or more?
A. false
